This section presents compounds with their documented IC50 values.
# targetEntity: Chitinase (Onchocerca volvulus, UniProt Q25615)
# Sequence (Q25615 whole entry): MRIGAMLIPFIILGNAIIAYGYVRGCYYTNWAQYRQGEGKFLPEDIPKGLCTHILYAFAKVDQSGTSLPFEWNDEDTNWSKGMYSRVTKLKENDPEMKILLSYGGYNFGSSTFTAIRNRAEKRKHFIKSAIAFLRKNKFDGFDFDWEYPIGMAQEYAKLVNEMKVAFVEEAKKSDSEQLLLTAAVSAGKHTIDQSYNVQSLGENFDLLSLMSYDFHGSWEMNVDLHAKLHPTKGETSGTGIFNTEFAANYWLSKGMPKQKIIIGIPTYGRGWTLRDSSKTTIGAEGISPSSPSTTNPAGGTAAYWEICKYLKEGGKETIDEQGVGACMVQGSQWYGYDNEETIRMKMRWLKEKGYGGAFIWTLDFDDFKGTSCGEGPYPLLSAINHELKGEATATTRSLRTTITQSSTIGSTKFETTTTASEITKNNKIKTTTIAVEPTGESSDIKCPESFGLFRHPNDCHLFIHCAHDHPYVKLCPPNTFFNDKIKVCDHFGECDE
# testSummary: Inhibition of L3 larval stage of Onchocerca volvulus chitinase using 4-methylumbelliferyl-N-N'-N''-beta-chitotrioside as substrate assessed as release of 4-methylumbelliferone measured for 10 mins by fluorescence assay
Just the number please, in µM, no unit attached.

COc1ccc2c(c1)[nH]c1c(C)nccc12 [HARMINE]	7.06
Cc1nccc2c3ccc(OCc4ccc(Cl)cc4)cc3n(Cc3ccc(Cl)cc3)c12	2.08

Alright, here's another compound for you.
Ask | Fill in: IC50 of c1ccc2c(c1)[nH]c1cnccc12 [NORHARMANE] is ___
Reply | 8.46
